Biological target: Amyloid-beta(1-42) oligomer binding to purified human brain membranes (Homo sapiens, UniProt P05067)
Sequence (P05067 672-713): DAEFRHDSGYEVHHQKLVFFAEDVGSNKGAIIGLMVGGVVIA
Counter-ions that a name gives are not always drawn.
Measured Metric: IC50 (µM)

- C/C(=N\Nc1ncnc2cc(Cl)ccc12)c1ccc(-n2cnc(C)c2C)nc1 [Compound 16, phosphate]: 3.29
- Clc1ccc2c(N/N=C/c3ccc(-n4ccnc4)cc3)ccnc2c1 [Compound 38, dihydrochloride]: 4.62
- Cc1ncn(-c2ccc(Nc3ncnc4cc(Cl)ccc34)cn2)c1C: 7.01
- Clc1ccc2c(Nc3ccc(-n4cncn4)nc3)ncnc2c1: 10.4
- Fc1cc(/C=N/Nc2ccnc3cc(Cl)ccc23)ccc1-n1ccnc1 [Compound 35, hydrochloride]: 10.4
- Clc1ccc2c(N/N=C/c3ccc(-n4cccn4)cc3)ccnc2c1: 11.5
- Cc1ncn(-c2ncc(Nc3ncnc4cc(Cl)ccc34)cc2O)c1C: 4.36
